- experimentalTarget: PAD1 (Homo sapiens, UniProt Q9ULC6)
- Construct: made in house
- Sequence (Q9ULC6 1-663): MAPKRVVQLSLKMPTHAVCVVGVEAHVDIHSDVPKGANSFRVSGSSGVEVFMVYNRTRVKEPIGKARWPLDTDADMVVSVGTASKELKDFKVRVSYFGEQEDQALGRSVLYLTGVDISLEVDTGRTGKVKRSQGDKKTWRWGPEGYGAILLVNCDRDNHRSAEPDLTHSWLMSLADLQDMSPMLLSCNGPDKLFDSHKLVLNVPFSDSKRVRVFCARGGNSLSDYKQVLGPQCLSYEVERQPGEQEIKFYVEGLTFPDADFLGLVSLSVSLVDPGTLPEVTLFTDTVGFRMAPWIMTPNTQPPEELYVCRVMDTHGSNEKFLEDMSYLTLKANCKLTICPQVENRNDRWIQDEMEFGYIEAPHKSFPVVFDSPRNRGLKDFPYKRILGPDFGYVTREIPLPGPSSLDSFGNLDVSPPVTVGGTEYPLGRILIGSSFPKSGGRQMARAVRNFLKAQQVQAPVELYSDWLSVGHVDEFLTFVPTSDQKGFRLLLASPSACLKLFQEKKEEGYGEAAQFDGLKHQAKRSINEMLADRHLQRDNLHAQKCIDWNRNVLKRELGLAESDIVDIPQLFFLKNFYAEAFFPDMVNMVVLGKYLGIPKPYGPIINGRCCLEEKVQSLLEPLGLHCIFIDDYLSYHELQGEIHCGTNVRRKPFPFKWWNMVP
- assayText: Inactivation kinetics, PAD1
- Type: biochemical
- conditionInfo: kinact/KI relative to least inhibited isozyme (1.0)
Tag: Satisfied if measured Fold PAD1 Selectivity is not below 9 fold, Not satisfied if it is.

CCn1c([C@H](CCCNC(=N)CCl)NC(=O)c2cccc3c2C(=O)NC3)nc2cc(OC)ccc21 :: Satisfied
CCN1Cc2cccc(C(=O)N[C@@H](CCCNC(=N)CF)c3nc4cc(OC)ccc4[nH]3)c2C1=O :: Not satisfied
CC(C)n1c([C@H](CCCNC(=N)CF)NC(=O)c2ccccc2C(=O)O)nc2ccccc21 :: Satisfied
COc1cccc2c1nc([C@H](CCCNC(=N)CCl)NC(=O)c1cccc3c1C(=O)N(C)C3)n2C :: Not satisfied
CCN1Cc2cccc(C(=O)N[C@@H](CCCNC(=N)CF)c3nc4cc(OC)ccc4n3C)c2C1=O :: Satisfied
CCOc1cccc2c1nc([C@H](CCCNC(=N)CF)NC(=O)c1cccc3c1C(=O)NC3)n2C :: Satisfied
Cn1c([C@H](CCCNC(=N)CCl)NC(=O)c2cccc3c2C(=O)NC3)nc2ccccc21 :: Satisfied
CCn1c([C@H](CCCNC(=N)CCl)NC(=O)c2ccccc2C(=O)OC(C)(C)C)nc2ccccc21 :: Satisfied

----------
// reported Fold PAD3 Selectivity for each item listed
- experimentalTarget: PAD3 (Homo sapiens)
- Construct: made in house
- assayText: Inactivation kinetics, PAD3
- Type: biochemical
- conditionInfo: kinact/KI relative to least inhibited isozyme (1.0)
readoutType: Fold PAD3 Selectivity (fold)

CCN1Cc2cccc(C(=O)N[C@@H](CCCNC(=N)CCl)c3nc4ccccc4n3C)c2C1=O [Compound 8d] :: 1.0
CCn1c([C@H](CCCNC(=N)CCl)NC(=O)c2cccc3c2C(=O)NC3)nc2c(OC)cccc21 [Compound 7r] :: 2.9
N=C(CF)NCCC[C@H](NC(=O)c1ccccc1)c1nc2ccccc2[nH]1 [Compound 5a] :: 1.9
COc1cccc2c1nc([C@H](CCCNC(=N)CF)NC(=O)c1ccccc1C(=O)O)n2C [Compound 6i] :: 1.1
CCn1c([C@H](CCCNC(=N)CF)NC(=O)c2ccc(-c3ccccc3)cc2)nc2ccccc21 [Compound 5i] :: 60
CC(C)n1c([C@H](CCCNC(=N)CCl)NC(=O)c2cccc3c2C(=O)NC3)nc2ccccc21 [Compound 7h] :: 3.2
CCN1Cc2cccc(C(=O)N[C@@H](CCCNC(=N)CCl)c3nc4ccccc4n3C(C)C)c2C1=O [Compound 8h] :: 2.0

----------
- experimentalTarget: PAD3 (Homo sapiens, UniProt Q9ULW8)
- Construct: made in house
- Sequence (Q9ULW8 whole entry): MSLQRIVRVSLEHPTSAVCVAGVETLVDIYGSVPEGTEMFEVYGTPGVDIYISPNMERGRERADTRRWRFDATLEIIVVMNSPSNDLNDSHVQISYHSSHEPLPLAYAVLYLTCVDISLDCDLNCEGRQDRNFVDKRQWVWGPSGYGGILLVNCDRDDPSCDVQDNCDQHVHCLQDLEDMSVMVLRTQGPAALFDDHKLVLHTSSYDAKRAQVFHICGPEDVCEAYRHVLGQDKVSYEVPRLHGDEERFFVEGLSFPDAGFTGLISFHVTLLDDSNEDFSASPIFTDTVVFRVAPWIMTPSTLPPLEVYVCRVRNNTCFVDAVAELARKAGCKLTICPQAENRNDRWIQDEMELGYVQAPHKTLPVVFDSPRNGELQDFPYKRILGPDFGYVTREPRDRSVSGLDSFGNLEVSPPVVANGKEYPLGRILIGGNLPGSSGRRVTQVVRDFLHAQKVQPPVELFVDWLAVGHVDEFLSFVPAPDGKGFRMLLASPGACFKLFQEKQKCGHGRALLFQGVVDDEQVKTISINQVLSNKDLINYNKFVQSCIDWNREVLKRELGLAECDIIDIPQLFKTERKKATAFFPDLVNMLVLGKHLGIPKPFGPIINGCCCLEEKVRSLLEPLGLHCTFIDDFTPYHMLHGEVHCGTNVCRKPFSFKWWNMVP
- assayText: Inactivation kinetics, PAD3
- Format: biochemical
- conditionInfo: a: single kobs determined
- Method: Inactivation kinetic parameters were determined by incubating PAD1, 2, or 4 (2.0 μM) or PAD3 (5.0 μM) in a pre-warmed (10 min; 37° C.) inactivation mixture (50 mM HEPES, 10 mM CaCl2, and 2 mM DTT, pH 7.6, with a final volume of 60 μL) containing various concentrations of inhibitor. […] After 15 min, reactions were quenched in liquid nitrogen and citrulline production quantified using the COLDER assay. […]
Tag: Criterion met if measured kinact/KI is not below 200 M⁻¹ s⁻¹, Criterion not met if it is.

CC(C)n1c([C@H](CCCNC(=N)CCl)NC(=O)c2ccc(-c3ccccc3)cc2)nc2ccccc21 [Compound 5l] :: Criterion not met
N=C(CCl)NCCC[C@H](NC(=O)c1ccc(-c2ccccc2)cc1)c1nc2cc(F)c(F)cc2[nH]1 [Compound 5r] :: Criterion met
CCN1Cc2cccc(C(=O)N[C@@H](CCCNC(=N)CCl)c3nc4cc(OC)ccc4[nH]3)c2C1=O [Compound 8x] :: Criterion met
COc1cccc2[nH]c([C@H](CCCNC(=N)CF)NC(=O)c3cccc4c3C(=O)NC4)nc12 [Compound 7i] :: Criterion not met
CCN1Cc2cccc(C(=O)N[C@@H](CCCNC(=N)CF)c3nc4cc(OC)ccc4[nH]3)c2C1=O [Compound 8w] :: Criterion not met

----------
- experimentalTarget: PAD1 (Homo sapiens, UniProt Q9ULC6)
- Construct: made in house
- Sequence (Q9ULC6 1-663): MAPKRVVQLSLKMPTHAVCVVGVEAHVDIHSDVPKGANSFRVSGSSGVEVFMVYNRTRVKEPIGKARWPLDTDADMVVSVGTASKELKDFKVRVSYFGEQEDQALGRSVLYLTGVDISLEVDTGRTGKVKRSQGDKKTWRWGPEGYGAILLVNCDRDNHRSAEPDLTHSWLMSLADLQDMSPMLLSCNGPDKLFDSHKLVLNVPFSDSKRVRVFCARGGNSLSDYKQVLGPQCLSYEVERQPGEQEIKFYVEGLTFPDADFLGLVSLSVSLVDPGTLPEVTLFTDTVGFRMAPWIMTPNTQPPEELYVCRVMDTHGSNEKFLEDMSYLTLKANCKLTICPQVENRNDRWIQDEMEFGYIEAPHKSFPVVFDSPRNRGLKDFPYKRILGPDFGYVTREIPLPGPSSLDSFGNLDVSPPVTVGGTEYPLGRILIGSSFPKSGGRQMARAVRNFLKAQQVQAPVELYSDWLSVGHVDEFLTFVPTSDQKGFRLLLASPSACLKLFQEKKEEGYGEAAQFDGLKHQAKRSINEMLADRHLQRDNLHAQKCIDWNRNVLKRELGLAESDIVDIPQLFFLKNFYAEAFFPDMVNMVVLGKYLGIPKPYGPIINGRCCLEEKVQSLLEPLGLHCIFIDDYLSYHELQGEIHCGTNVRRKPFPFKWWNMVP
- assayText: Inactivation kinetics, PAD1
- Format: biochemical
- conditionInfo: kinact/KI relative to least inhibited isozyme (1.0)
readoutType: Fold PAD1 Selectivity (fold)

COc1cccc2c1nc([C@H](CCCNC(=N)CF)NC(=O)c1ccccc1C(=O)O)n2C [Compound 6i] :: 6.2
N=C(CF)NCCC[C@H](NC(=O)c1ccccc1C(=O)O)c1nc2ccccc2[nH]1 [Compound 6a] :: 11
CCN1Cc2cccc(C(=O)N[C@@H](CCCNC(=N)CCl)c3nc4cc(OC)ccc4[nH]3)c2C1=O [Compound 8x] :: 7.8

----------
- experimentalTarget: PAD1 (Homo sapiens, UniProt Q9ULC6)
- Construct: made in house
- Sequence (Q9ULC6 1-663): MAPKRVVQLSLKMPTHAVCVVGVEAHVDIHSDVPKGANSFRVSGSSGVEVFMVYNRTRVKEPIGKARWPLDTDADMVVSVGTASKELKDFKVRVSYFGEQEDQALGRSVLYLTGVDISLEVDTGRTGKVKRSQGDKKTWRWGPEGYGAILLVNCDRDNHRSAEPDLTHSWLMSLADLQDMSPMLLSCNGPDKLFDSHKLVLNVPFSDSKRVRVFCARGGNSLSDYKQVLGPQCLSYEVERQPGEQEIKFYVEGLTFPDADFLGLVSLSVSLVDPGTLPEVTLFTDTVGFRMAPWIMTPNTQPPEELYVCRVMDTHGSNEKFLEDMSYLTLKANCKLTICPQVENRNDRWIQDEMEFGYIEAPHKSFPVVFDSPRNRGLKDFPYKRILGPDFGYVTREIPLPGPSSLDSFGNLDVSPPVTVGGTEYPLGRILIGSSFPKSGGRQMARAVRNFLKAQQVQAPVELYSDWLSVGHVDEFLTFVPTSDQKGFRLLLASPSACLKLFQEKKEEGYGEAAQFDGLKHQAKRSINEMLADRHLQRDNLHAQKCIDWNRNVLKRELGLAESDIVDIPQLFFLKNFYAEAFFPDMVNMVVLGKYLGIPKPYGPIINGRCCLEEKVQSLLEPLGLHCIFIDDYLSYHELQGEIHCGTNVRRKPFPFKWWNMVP
- assayText: Inactivation kinetics, PAD1
- Type: biochemical
- conditionInfo: a: single kobs determined; b: from a linear fit
- Procedure: Inactivation kinetic parameters were determined by incubating PAD1, 2, or 4 (2.0 μM) or PAD3 (5.0 μM) in a pre-warmed (10 min; 37° C.) inactivation mixture (50 mM HEPES, 10 mM CaCl2, and 2 mM DTT, pH 7.6, with a final volume of 60 μL) containing various concentrations of inhibitor. […] After 15 min, reactions were quenched in liquid nitrogen and citrulline production quantified using the COLDER assay. […]
Tag: t if measured kinact/KI is not below 500 M⁻¹ s⁻¹, f if it is.

C#Cc1ccc(-c2ccc(C(=O)N[C@@H](CCCNC(=N)CF)c3nc4ccccc4[nH]3)cc2)cc1 :: f
Cn1c([C@H](CCCNC(=N)CF)NC(=O)c2ccccc2C(=O)O)nc2ccccc21 :: t
CCN1Cc2cccc(C(=O)N[C@@H](CCCNC(=N)CCl)c3nc4ccccc4n3C)c2C1=O :: t
COc1cccc2c1nc([C@H](CCCNC(=N)CF)NC(=O)c1ccccc1C(=O)O)n2C :: t
CCN1Cc2cccc(C(=O)N[C@@H](CCCNC(=N)CF)c3nc4cc(OC)ccc4n3C)c2C1=O :: t
C#Cc1ccc(-c2ccc(C(=O)N[C@@H](CCCNC(=N)CCl)c3nc4ccccc4[nH]3)cc2)cc1 :: f
N=C(CF)NCCC[C@H](NC(=O)c1ccc(-c2ccc(F)cc2)cc1)c1nc2cc(F)c(F)cc2[nH]1 :: f
COc1cccc2c1nc([C@H](CCCNC(=N)CF)NC(=O)c1cccc3c1C(=O)NC3)n2C :: t
CCn1c([C@H](CCCNC(=N)CF)NC(=O)c2cccc3c2C(=O)NC3)nc2ccccc21 :: t
CCN1Cc2cccc(C(=O)N[C@@H](CCCNC(=N)CCl)c3nc4ccccc4n3CC)c2C1=O :: t
